Sourced from PubChem BioAssay AID1159580

Procedure text: chemical genetic growth profiling, strain panel (AID 1159580);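 note: tested at 20 µM; growth read once vehicle control cultures reached saturation at 30 °C; 1 = growth at the plate median or of vehicle wells; lower values mean less growth of the strain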
Assay context: S. cerevisiae deletion strains, growth OD, locus YLL026W, hits give low values
Out of some 5,500 compounds screened, about 2,000 (36%) were called active. About 18% were inconclusive and are not listed. This is one part of the list.
Listing of entries alongside the reported normalized growth.
API doc: respond with a numeric literal and nothing else, no unit.

Consider the following illustrative entries.
CCCCCCCCCCCCCCC(C(=O)O)C(O)(CC(=O)OC)C(=O)O (stereo unspecified)
0.997
CO[C@@]12[C@@H]3NC3CN1C1=C(C(=O)C(N)=C(C)C1=O)[C@@H]2COC(N)=O (stereo partly specified)
0.977
Nc1ccc(S(=O)(=O)c2ccc(N)cc2)cc1
0.987
O=C(O)CC(O)(CC(=O)O)C(=O)O
0.999
Cc1cc(-n2c(=O)[nH]c(=O)n(C)c2=O)ccc1Oc1ccc(SC(F)(F)F)cc1
0.169

Moving on to the next molecule.
Reported normalized growth for CCOP(=S)(OCC)Oc1nc(Cl)c(Cl)cc1Cl : what is it?
0.982

###

Listing of entries alongside the reported normalized growth.
Procedure text: chemical genetic growth profiling, strain panel (AID 1159580)
Assay context: S. cerevisiae deletion strains, growth OD, locus YMR001C, strain CDC5, hits give low values
About 2,000 (36%) of roughly 5,500 compounds were called active. Roughly 18% stayed inconclusive and do not appear here. This is one part of the list.

Consider the following illustrative entries.
O=C(Nc1ccc(Cl)cc1)SCc1c(Cl)cccc1Cl
0.971 (inactive)
C=CCc1c(CCC)nc(-c2ccccn2)[nH]c1=O
0.937 (inactive)
Cc1oc(C(C)(C)C)cc1-c1cc(N)n(-c2ccc(I)cc2)n1
1 (inactive)
CSc1n[nH]c(-c2cc(C(F)(F)F)cc(C(F)(F)F)c2)n1
0.937 (inactive)
Cc1nc(-c2ccccn2)[nH]c(=O)c1Cc1c(Cl)cccc1Cl
0.956 (inactive)

Reported normalized growth for CC(C)(C)C(=O)N(Cc1cccnc1)Cc1ccc(Cl)cc1Cl : what is it?
0.995 (inactive)

Reported normalized growth for O=S(=O)(c1ccc(Cl)cc1)N(Cc1cccnc1)Cc1ccc(Cl)cc1Cl : what is it?
0.963 (inactive)

Reported normalized growth for CCOC(=O)c1cc(CC)sc1NC(=O)c1ccc([N+](=O)[O-])o1 : what is it?
0.998 (inactive)

Reported normalized growth for COc1ccc2nc3ccccc3c(N)c2c1 : what is it?
0.667 (active)

Reported normalized growth for S=C(NNC(=S)NC1CC2C=CC1C2)Nc1ccc(Br)c(Cl)c1 (stereo unspecified) : what is it?
0.984 (inactive)

Reported normalized growth for Cc1csc(NC(=O)Nc2ccc(C(F)(F)F)cc2)c1 : what is it?
0.966 (inactive)

###

Procedure text: chemical genetic growth profiling, strain panel (AID 1159580)
Assay context: S. cerevisiae deletion strains, growth OD, locus YML032C, strain rad52, hits give low values
Among all 5,500 compounds or so, about 2,000 (36%) were called active. About 18% were inconclusive and are not listed. The list shows a part of the results.
Threshold check on normalized growth: strictly below 1 is MET; on or above 1 is NOT MET.

Record excerpt, results attached:
CC(C)(Sc1cc(C(C)(C)C)c(O)c(C(C)(C)C)c1)Sc1cc(C(C)(C)C)c(O)c(C(C)(C)C)c1
NOT MET
Nc1c2ccccc2nc2ccccc12 (tested in a mixture with another compound)
MET
COC(=O)C[C@H]1C(C)(C)C(=O)[C@@H]2CC3C4=CC(=O)O[C@@H](c5ccoc5)[C@]4(C)CCC3[C@@]1(C)C2=O (stereo not given in full)
MET

Pending molecule:
Bench note: check whether C#C[C@]1(OC(C)=O)CCC2C3CCC4=CC(=O)CC[C@@H]4C3CC[C@@]21C (stereo not given in full) shows normalized growth below 1
MET

###

Procedure text: chemical genetic growth profiling, strain panel (AID 1159580);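 note: tested at 20 µM; growth read once vehicle control cultures reached saturation at 30 °C; 1 = growth at the plate median or of vehicle wells; lower values mean less growth of the strain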
Assay context: S. cerevisiae deletion strains, growth OD, locus YOR136W, strain idh2, hits give low values
Screen size: about 5,500 compounds; about 2,000 (36%) were called active. Roughly 18% stayed inconclusive and do not appear here. The list shows a part of the results.
Endpoint name: normalized growth
API doc: respond with a numeric literal and nothing else, no unit.

CC(=O)/C=C\[C@@H]1[C@@]2(C)CCCC(C)(C)C2CC[C@@]1(C)O (some centres undefined)
0.996
C=C/C(C)=C\CC1C(C)(O)CCC2C(C)(C)CCCC21C (centres undefined)
0.101
Nc1ccc(S(=O)(=O)Nc2cnc3ccccc3n2)cc1
0.98
COC(=O)C[C@H]1C(C)(C)C(=O)[C@@H]2CC3C4=CC(=O)O[C@@H](c5ccoc5)[C@]4(C)CCC3[C@@]1(C)C2=O (some centres undefined)
0.971
C[C@@H]1CC[C@H]2[C@@H](C)C(O)O[C@@H]3O[C@@]4(C)CC[C@@H]1[C@]32OO4 (some centres undefined)
0.321
C[C@@H]1CC[C@H]2[C@@H](C)C(=O)O[C@@H]3O[C@@]4(C)CC[C@@H]1[C@]32OO4
0.93
CC1C(=O)OC2C1CCC1(C)C=CC(=O)C3(C)OC213 (centres undefined)
1.01
N#CC(O[C@@H]1O[C@H](CO[C@@H]2O[C@H](CO)[C@@H](O)[C@H](O)[C@H]2O)[C@@H](O)[C@H](O)[C@H]1O)c1ccccc1 (some centres undefined)
0.994

Moving on to the next molecule.
Reported normalized growth for NC(N)=N/N=C/c1c(Cl)cccc1Cl : what is it?
1.02

###

Procedure text: chemical genetic growth profiling, strain panel (AID 1159580);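 note: tested at 20 µM; growth read once vehicle control cultures reached saturation at 30 °C; 1 = growth at the plate median or of vehicle wells; lower values mean less growth of the strain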
Assay context: S. cerevisiae deletion strains, growth OD, locus YJL187C, strain SWE1
Out of some 5,500 compounds screened, about 2,000 (36%) were called active. About 18% were inconclusive and are not listed. Cut-off read from the data, not from the text of the source: active = normalized growth mostly below about 0.91 (no sharp cut-off); inconclusive = no clear call, values can overlap the other calls; inactive = mostly above about 0.92. This is one part of the list.
Just give me one of these, please: yes = active, no = inactive

Record excerpt, results attached:
Cc1cc(-n2c(=O)[nH]c(=O)n(C)c2=O)ccc1Oc1ccc(SC(F)(F)F)cc1
yes
COC(=O)Nc1nc2ccc(C(=O)c3ccccc3)cc2[nH]1
no

Pending compound:
Hi team, can someone confirm the assay call for C/C=C1\[C@H]2C=C(C)C[C@]1(N)c1ccc(=O)[nH]c1C2 ?
no

###

Procedure text: chemical genetic growth profiling, strain panel (AID 1159580);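 note: tested at 20 µM; growth read once vehicle control cultures reached saturation at 30 °C; 1 = growth at the plate median or of vehicle wells; lower values mean less growth of the strain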
Assay context: S. cerevisiae deletion strains, growth OD, locus YPL241C, strain CIN2
Out of some 5,500 compounds screened, about 2,000 (36%) were called active. Another 18% or so got no clear call; they are omitted. Cut-off read from the data, not from the text of the source: active = normalized growth mostly below about 0.91 (no sharp cut-off); inconclusive = no clear call, values can overlap the other calls; inactive = mostly above about 0.92. Some of the results follow. Where a SMILES comes first, the peptide text is derived from it. The star is where a group is joined. For = O=C*
Just give me one of these, please: T = active, F = inactive

COc1ccc(C(=O)CN2CCN(c3cc(C)nc4ccccc34)CC2)cc1
F

Hi team, can someone confirm the assay call for CC(=O)Nc1ccc(OCC(O)CNC(C)C)cc1 (configuration not stated) ?
F

Hi team, can someone confirm the assay call for O=C(COc1ccc2c(c1)OCO2)N1CCN(c2ncc(C(F)(F)F)cc2Cl)CC1 ?
F

Hi team, can someone confirm the assay call for COc1cc(-c2ccc(=O)[nH]n2)ccc1OC(F)F ?
F

Hi team, can someone confirm the assay call for CCC(C)C(NC)C(=O)O (configuration not stated) ?
F

Hi team, can someone confirm the assay call for O=C(NC1CCN(Cc2ccc(Cl)c(Cl)c2)CC1)c1ccccc1 ?
F

Hi team, can someone confirm the assay call for C=CCn1c(=O)c2c(nc(-c3ccc(S(=O)(=O)O)cc3)n2C)n(C)c1=O ?
F

Hi team, can someone confirm the assay call for CC(=O)[C@]1(O)Cc2c(O)c3c(c(O)c2[C@@H](O[C@H]2C[C@H](N)[C@H](O)[C@H](C)O2)C1)C(=O)c1ccccc1C3=O ?
T

Hi team, can someone confirm the assay call for CCC(C)C(=O)O[C@H]1[C@H](O)C2C(CN3CC(C)CCC3[C@@]2(C)O)C2C[C@]34O[C@]5(O)C(OC(=O)C(C)(O)CC)CC[C@@]3(C)C5C(OC(C)=O)[C@@H](OC(C)=O)C4[C@@]21O (some centres not stated) ?
F

Hi team, can someone confirm the assay call for c1cc2c(cc1N=C1SCC3CCCCN13)OCO2 (configuration not stated) ?
F

Hi team, can someone confirm the assay call for COc1ccc(Oc2cc(C)nc3ccccc23)cc1 ?
T

Hi team, can someone confirm the assay call for NC(Cc1c[nH]c2ccccc12)C(=O)O (configuration not stated) ?
F

Hi team, can someone confirm the assay call for CSCCC(NC=O)C(=O)NC(Cc1ccccc1)C(=O)O (stereo not drawn) (For-Met-Phe-OH; configuration not given here) ?
F

Hi team, can someone confirm the assay call for Cc1ccnc(NS(=O)(=O)c2ccc(N)cc2)n1 ?
F

Hi team, can someone confirm the assay call for Cc1cccc(NC(=S)NC2CC3C=CC2C3)c1 (configuration not stated) ?
F

Hi team, can someone confirm the assay call for COc1ccc(-c2n[nH]c(=S)n2-c2cccc(OC)c2)cc1 ?
F

Hi team, can someone confirm the assay call for CC1=NS(=O)(=O)c2cc(Cl)ccc2N1 ?
F

Hi team, can someone confirm the assay call for Cc1cc(=O)[nH]c(-c2ccccn2)n1 ?
F

Hi team, can someone confirm the assay call for COc1ccc(NC(=O)C(C)c2ccc(CC(C)C)cc2)cc1 (configuration not stated) ?
T

Hi team, can someone confirm the assay call for C[C@@H]1OC(O[C@H]2[C@H](O)[C@@H](O)[C@H](OC[C@H]3O[C@@H](OC(=O)[C@]45CCC(C)(C)CC4C4=CCC6[C@@]7(C)CC[C@H](OC8OC[C@H](O)[C@H](O)[C@H]8OC8O[C@@H](C)[C@H](O)[C@@H](O)[C@H]8O)[C@@](C)(CO)C7CC[C@@]6(C)[C@]4(C)CC5)[C@H](O)[C@@H](O)[C@@H]3O)O[C@@H]2CO)[C@H](O)[C@H](O)[C@H]1O (some centres not stated) ?
F

Hi team, can someone confirm the assay call for N[C@@H](Cc1c[nH]c2ccccc12)C(=O)O ?
F

Hi team, can someone confirm the assay call for S=C(NCc1cccnc1)Nc1ccccc1Cl ?
F

Hi team, can someone confirm the assay call for CCCc1nc(-c2ccccn2)[nH]c(=O)c1CC1CC1 ?
T

Hi team, can someone confirm the assay call for CC1(C)CC[C@]2(C)CC[C@]3(C)C(=CCC4[C@@]5(C)CC[C@H](O)C(C)(C)C5CC[C@]43C)C2C1 (some centres not stated) ?
F
